From: ChEMBL document CHEMBL1145592

Consider the following compounds and their measured MIC readings.
Test system: Staphylococcus aureus
PROCEDURE SUMMARY: Antibacterial activity against methicillin-susceptible Staphylococcus aureus Smith
Format: functional
Respond numerically; units are µg/mL and should not be typed.

C=C[C@]1(C)C[C@@H](OC(=O)CSC2CCN(C(=O)CCn3cnc4cncnc43)CC2)[C@]2(C)[C@H](C)CC[C@]3(CCC(=O)[C@@H]32)[C@@H](C)[C@@H]1O : 0.05
C=C[C@]1(C)C[C@@H](OC(=O)CSC2CCN(C(=O)CCn3cnc4c(N5CCC(NC)CC5)ncnc43)CC2)[C@]2(C)[C@H](C)CC[C@]3(CCC(=O)[C@@H]32)[C@@H](C)[C@@H]1O : 0.125
C=C[C@]1(C)C[C@@H](OC(=O)CSC2CCN(C(=O)CCn3cnc4c(N5CCNC(C)C5)nc(N)nc43)CC2)[C@]2(C)[C@H](C)CC[C@]3(CCC(=O)[C@@H]32)[C@@H](C)[C@@H]1O (stereo not given in full) : 0.25
C=C[C@]1(C)C[C@@H](OC(=O)CSC2CCN(C(=O)CCn3cnc4c(N5CCC(NC)C5)ncnc43)CC2)[C@]2(C)[C@H](C)CC[C@]3(CCC(=O)[C@@H]32)[C@@H](C)[C@@H]1O (stereo not given in full) : 0.063
C=C[C@]1(C)C[C@@H](OC(=O)CSC2CCN(C(=O)CCn3cnc4c(N5CC[C@@H](N)C5)ncnc43)CC2)[C@]2(C)[C@H](C)CC[C@]3(CCC(=O)[C@@H]32)[C@@H](C)[C@@H]1O : 0.063
C=C[C@]1(C)C[C@@H](OC(=O)CSC2CCN(C(=O)CCn3cnc4c(N5CCC(N)C5)ncnc43)CC2)[C@]2(C)[C@H](C)CC[C@]3(CCC(=O)[C@@H]32)[C@@H](C)[C@@H]1O (stereo not given in full) : 0.063

Complete the entry with MIC for C=C[C@]1(C)C[C@@H](OC(=O)CSC2CCN(C(=O)CCn3cnc4c(N5CCC(CN)C5)nc(N)nc43)CC2)[C@]2(C)[C@H](C)CC[C@]3(CCC(=O)[C@@H]32)[C@@H](C)[C@@H]1O (stereo not given in full)
0.5

Complete the entry with MIC for C=C[C@]1(C)C[C@@H](OC(=O)CSC2CCN(C(=O)CCn3cnc4c(N5CCCC(N)C5)nc(N)nc43)CC2)[C@]2(C)[C@H](C)CC[C@]3(CCC(=O)[C@@H]32)[C@@H](C)[C@@H]1O (stereo not given in full)
0.25

Complete the entry with MIC for "C=C[C@]1(C)C[C@@H](OC(=O)CSC2CCN(C(=O)CCn3cnc4c(N5CCC(N)CC5)nc(N)nc43)CC2)[C@]2(C)[C@H](C)CC[C@]3(CCC(=O)[C@@H]32)[C@@H](C)[C@@H]1O"
0.25

Complete the entry with MIC for "C=C[C@]1(C)C[C@@H](OC(=O)CSC2CCN(C(=O)CCn3cnc4ncncc43)CC2)[C@]2(C)[C@H](C)CC[C@]3(CCC(=O)[C@@H]32)[C@@H](C)[C@@H]1O"
0.1

---

Test system: Streptococcus pneumoniae
PROCEDURE SUMMARY: Antibacterial activity against penicillin-susceptible Streptococcus pneumoniae 1
Format: functional
Field 'label' (enum: condition met / condition not met). Set to condition met when MIC is strictly under 0.2 µg/mL; else condition not met.

Recorded results for 3 compounds are shown here.
C=C[C@]1(C)C[C@@H](OC(=O)CSC2CCN(C(=O)CCn3cnc4c(NC)nc(N)nc43)CC2)[C@]2(C)[C@H](C)CC[C@]3(CCC(=O)[C@@H]32)[C@@H](C)[C@@H]1O : condition met
C=C[C@]1(C)C[C@@H](OC(=O)CSC2CCN(C(=O)Cn3cnc4cncnc43)CC2)[C@]2(C)[C@H](C)CC[C@]3(CCC(=O)[C@@H]32)[C@@H](C)[C@@H]1O : condition not met
C=C[C@]1(C)C[C@@H](OC(=O)CSC2CCN(C(=O)CCn3cnc4c(N)ncnc43)CC2)[C@]2(C)[C@H](C)CC[C@]3(CCC(=O)[C@@H]32)[C@@H](C)[C@@H]1O : condition not met

Next:
Field: below-cutoff. Rule: recorded MIC strictly less than 0.2 µg/mL. Subject: "C=C[C@]1(C)C[C@@H](OC(=O)CSC2CCN(C(=O)CCn3cnc4c(N(C)C)nc(N)nc43)CC2)[C@]2(C)[C@H](C)CC[C@]3(CCC(=O)[C@@H]32)[C@@H](C)[C@@H]1O"
condition met
